Overview of recorded EC50 for various molecules
Test system: PC-3
protocol: Cytotoxicity against human PC3 cells after 72 hrs by MTT assay
Type: functional
measurement_parameters: PC-3, 72 h, read-out: ED50 (the source's name)

{"molecule": "CN(CCO)CCCOc1cc(O)c2c(c1)C(=O)c1ccccc1C2=O", "EC50": "8.89 µM"}
{"molecule": "CCOC(=O)N1CCN(CCCOc2cc(O)c3c(c2)C(=O)c2ccccc2C3=O)CC1", "EC50": "> 30 µM"}
{"molecule": "O=C1c2ccccc2C(=O)c2c(O)cc(OCCCN3CCOCC3)cc21", "EC50": "17.7 µM"}
{"molecule": "CCNCCCOc1ccc2c(c1)C(=O)c1ccccc1C2=O", "EC50": "22.9 µM"}
{"molecule": "CCNCCCOc1cc(O)c2c(c1)C(=O)c1ccccc1C2=O", "EC50": "> 50 µM"}
{"molecule": "CC(O)CNCCCOc1cc(O)c2c(c1)C(=O)c1ccccc1C2=O (configuration not stated)", "EC50": "9.07 µM"}
{"molecule": "CCCNCCCOc1cc(O)c2c(c1)C(=O)c1ccccc1C2=O", "EC50": "14 µM"}
{"molecule": "CN1CCN(CCCOc2cc(O)c3c(c2)C(=O)c2ccccc2C3=O)CC1", "EC50": "> 50 µM"}
{"molecule": "O=C1c2ccccc2C(=O)c2c(O)cc(OCCCN3CCCC3)cc21", "EC50": "7.64 µM"}
{"molecule": "O=C1c2ccccc2C(=O)c2c(O)cc(OCCCN3CCN(CCO)CC3)cc21", "EC50": "> 50 µM"}
{"molecule": "O=C1c2ccccc2C(=O)c2c(O)cc(OCCCNC3CCCCC3)cc21", "EC50": "9.12 µM"}
{"molecule": "O=C1c2ccccc2C(=O)c2c(O)cc(OCCCN3CCCCC3)cc21", "EC50": "28.5 µM"}
